- ASSAYED_SYSTEM: Fatty-acid amide hydrolase 1 (Rattus norvegicus, UniProt P97612)
- Sequence (P97612 whole entry): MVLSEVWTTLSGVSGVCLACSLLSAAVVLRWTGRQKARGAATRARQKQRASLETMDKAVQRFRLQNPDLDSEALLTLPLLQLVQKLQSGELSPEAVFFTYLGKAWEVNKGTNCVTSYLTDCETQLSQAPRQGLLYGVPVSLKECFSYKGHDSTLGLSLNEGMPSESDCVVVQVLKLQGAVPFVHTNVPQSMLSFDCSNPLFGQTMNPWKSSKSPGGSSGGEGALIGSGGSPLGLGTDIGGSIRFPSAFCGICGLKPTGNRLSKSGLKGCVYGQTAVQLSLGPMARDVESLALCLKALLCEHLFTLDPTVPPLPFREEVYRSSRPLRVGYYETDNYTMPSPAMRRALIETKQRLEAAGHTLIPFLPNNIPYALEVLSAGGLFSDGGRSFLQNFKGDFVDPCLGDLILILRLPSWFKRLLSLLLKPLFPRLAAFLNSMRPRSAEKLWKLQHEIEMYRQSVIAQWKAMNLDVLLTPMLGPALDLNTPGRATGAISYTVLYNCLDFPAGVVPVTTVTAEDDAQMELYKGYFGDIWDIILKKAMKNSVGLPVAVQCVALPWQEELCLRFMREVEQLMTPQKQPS
- ASSAY_INFO: Inhibition of FAAH in rat brain membrane assessed as [3H]anandamide hydrolysis
- Assay type: cell membranes
- EXPERIMENTAL_CONTEXT: read-out: pIC50 (converted)
PROPERTY_LABEL: log10(IC50) (log10 of the value in nM)
# log10 transformed; quantity=IC50; unit=nM

Form field log10(IC50) for item "O=C(NC1CCCC1)Oc1cccc(-c2ccccc2)c1" on Fatty-acid amide hydrolase 1 (Rattus norvegicus, UniProt P97612): 1.53

Form field log10(IC50) for item "O=C(NCCCCc1ccc(-c2ccccc2)cc1)Oc1cccc(-c2ccccc2)c1" on Fatty-acid amide hydrolase 1 (Rattus norvegicus, UniProt P97612): 0.89

Form field log10(IC50) for item "CC(C)NC(=O)Oc1cccc(-c2ccccc2)c1" on Fatty-acid amide hydrolase 1 (Rattus norvegicus, UniProt P97612): 2.72

Form field log10(IC50) for item "O=C(NCc1ccco1)Oc1cccc(-c2ccccc2)c1" on Fatty-acid amide hydrolase 1 (Rattus norvegicus, UniProt P97612): 2.24

Form field log10(IC50) for item "O=C(NCc1ccc2ccccc2c1)Oc1cccc(-c2ccccc2)c1" on Fatty-acid amide hydrolase 1 (Rattus norvegicus, UniProt P97612): 0.73

Form field log10(IC50) for item "CCCCNC(=O)Oc1cccc(-c2ccccc2)c1" on Fatty-acid amide hydrolase 1 (Rattus norvegicus, UniProt P97612): 2.05

Form field log10(IC50) for item "O=C(NC1CCC1)Oc1cccc(-c2ccccc2)c1" on Fatty-acid amide hydrolase 1 (Rattus norvegicus, UniProt P97612): 1.73

Form field log10(IC50) for item "O=C(NCCCCCCCCc1ccccc1)Oc1cccc(-c2ccccc2)c1" on Fatty-acid amide hydrolase 1 (Rattus norvegicus, UniProt P97612): 0.73

Form field log10(IC50) for item "O=C(NCc1ccccc1)Oc1cccc(-c2ccccc2)c1" on Fatty-acid amide hydrolase 1 (Rattus norvegicus, UniProt P97612): 2.14

Form field log10(IC50) for item "O=C(NCCCCCCc1ccccc1)Oc1cccc(-c2ccccc2)c1" on Fatty-acid amide hydrolase 1 (Rattus norvegicus, UniProt P97612): 1.11

Form field log10(IC50) for item "O=C(NC1Cc2ccccc2C1)Oc1cccc(-c2ccccc2)c1" on Fatty-acid amide hydrolase 1 (Rattus norvegicus, UniProt P97612): 2.33

Form field log10(IC50) for item "O=C(NC12CC3CC(CC(C3)C1)C2)Oc1cccc(-c2ccccc2)c1" on Fatty-acid amide hydrolase 1 (Rattus norvegicus, UniProt P97612): 3.61

Form field log10(IC50) for item "O=C(NCCc1ccccc1)Oc1cccc(-c2ccccc2)c1" on Fatty-acid amide hydrolase 1 (Rattus norvegicus, UniProt P97612): 2.68

Form field log10(IC50) for item "O=C(NCCCCCCN1CCOCC1)Oc1cccc(-c2ccccc2)c1" on Fatty-acid amide hydrolase 1 (Rattus norvegicus, UniProt P97612): 1.60

Form field log10(IC50) for item "O=C(NCCCCc1ccccc1)Oc1cccc(-c2ccccc2)c1" on Fatty-acid amide hydrolase 1 (Rattus norvegicus, UniProt P97612): 0.97

Form field log10(IC50) for item "CCCCCCCCNC(=O)Oc1cccc(-c2ccccc2)c1" on Fatty-acid amide hydrolase 1 (Rattus norvegicus, UniProt P97612): 1.72

Form field log10(IC50) for item "CNC(=O)Oc1cccc(-c2ccccc2)c1" on Fatty-acid amide hydrolase 1 (Rattus norvegicus, UniProt P97612): 4.14

Form field log10(IC50) for item "O=C(NCc1cccc2ccccc12)Oc1cccc(-c2ccccc2)c1" on Fatty-acid amide hydrolase 1 (Rattus norvegicus, UniProt P97612): 1.77

Form field log10(IC50) for item "C=CCNC(=O)Oc1cccc(-c2ccccc2)c1" on Fatty-acid amide hydrolase 1 (Rattus norvegicus, UniProt P97612): 2.84

Form field log10(IC50) for item "CCCCCCNC(=O)Oc1cccc(-c2ccccc2)c1" on Fatty-acid amide hydrolase 1 (Rattus norvegicus, UniProt P97612): 1.76

Form field log10(IC50) for item "O=C(NCC1CCCCC1)Oc1cccc(-c2ccccc2)c1" on Fatty-acid amide hydrolase 1 (Rattus norvegicus, UniProt P97612): 1.82

Cited source: ChEMBL document CHEMBL1150764
